Origin of the recorded values: patent US9546153B2

# System: TLR2 induced IL-6 in peripheral blood mononuclear cells (PBMCs)
# experiment: PBMC TLR2 Induced IL-6 Assay
# Format: cell-based, human
# condition summary: Homo sapiens, PBMC, 5 h, human PBMCs, 10 μg/ml lipoteichoic acid for 5 hours, IL-6 by ELISA; value without asterisk; read-out: Cell IC50
value kind: pIC50
Worth noting: pIC50 values are minus log10 of concentrations stated in mol/L.

Prompt line: Return reported pIC50; argument: CC(C)(O)C1CC(Nc2cc(Nc3ccc4ncsc4c3)ncc2C(=O)NC[C@@H](F)C(O)(C2CC2)C(F)(F)F)C1 (stereo partly shown)
Response line: 6.29

More entries:
Prompt line: Give the measured pIC50 of "CC(C)Nc1cc(Nc2ccc3[nH]c(=O)oc3c2)ncc1C(=O)NC[C@@H](F)C(C)(C)O" .
Response line: 6.41

Prompt line: // returns reported pIC50 for input "CC(C)(O)[C@H](F)CNC(=O)c1cnc(Nc2ccc3ncsc3c2)cc1NCCc1ccccc1"
Response line: 6.41

Prompt line: Which pIC50 value belongs to "CC(C)(O)[C@H](F)CNC(=O)c1cnc(Nc2ccn3nccc3c2F)cc1N[C@@H]1CCCC1(F)F" ?
Response line: 7.10

Prompt line: Fill in the blank: the reported pIC50 of CC(C)Nc1cc(Nc2ccc3ncsc3c2)ncc1C(=O)NC[C@@H](F)C(O)C1CC1 (stereo partly shown) is ____.
Response line: 6.27

Prompt line: Given CC(C)(O)[C@H](F)CNC(=O)c1cnc(Nc2ccc3nccnc3c2)cc1NC1CCCC1(F)F (stereo partly shown) , state its recorded pIC50.
Response line: 6.73

----------
# Tested on: TLR2 induced IL-6 in peripheral blood mononuclear cells (PBMCs)
# experiment: PBMC TLR2 Induced IL-6 Assay
# Type: cell-based, human
# condition summary: Homo sapiens, PBMC, 5 h, human PBMCs, 10 μg/ml lipoteichoic acid for 5 hours, IL-6 by ELISA; value without asterisk; read-out: Cell IC50
value kind: pIC50
# reply with the number alone; pIC50 is -log10 of concentration in mol/L

Prompt line: What pIC50 value was documented for this compound, CC(CO)Nc1cc(Nc2nc3ccnn3cc2F)ncc1C(=O)NC[C@@H](F)C(C)(C)O (stereo partly shown) [Example 423] ?
Response line: 6.34

Prompt line: Which pIC50 reading was recorded for the compound CC(C)(O)[C@H](F)CNC(=O)c1cnc(Nc2ccn3nccc3c2)cc1NC1CCOCC1F (stereo partly shown) [Example 298] ?
Response line: 6.22

Prompt line: Look at this compound and give its reported pIC50. CC(C)(O)[C@H](F)CNC(=O)c1cnc(Nc2nc3ccnn3cc2F)cc1NC1CC1 [Example 269]
Response line: 6.35

For the next question, use this compound.
Prompt line: Report pIC50 for CC(C)(O)[C@H](F)CNC(=O)c1cnc(Nc2ccc3nonc3c2)cc1NC1CCOCC1 [Example 99] please.
Response line: 6.59

----------
# IC50 measurements, system: IRAK4 (Homo sapiens (Human))
# Sequence (Q9NWZ3 whole entry, species assumed): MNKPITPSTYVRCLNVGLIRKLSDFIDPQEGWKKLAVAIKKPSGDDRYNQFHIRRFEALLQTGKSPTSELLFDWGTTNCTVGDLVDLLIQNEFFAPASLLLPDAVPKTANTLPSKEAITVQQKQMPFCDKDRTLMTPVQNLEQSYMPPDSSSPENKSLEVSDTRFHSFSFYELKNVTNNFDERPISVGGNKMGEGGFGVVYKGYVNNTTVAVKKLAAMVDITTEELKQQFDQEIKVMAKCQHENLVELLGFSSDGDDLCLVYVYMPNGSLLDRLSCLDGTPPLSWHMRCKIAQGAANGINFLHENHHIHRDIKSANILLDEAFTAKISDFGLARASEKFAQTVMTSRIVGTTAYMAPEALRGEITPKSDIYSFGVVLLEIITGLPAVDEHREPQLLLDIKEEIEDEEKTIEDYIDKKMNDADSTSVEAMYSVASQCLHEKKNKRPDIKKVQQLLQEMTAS
Give the value in nM but do not write nM after it.

Check out these entries, answers already filled in.
Prompt line: Form field - read-out: IC50; system: IRAK4 (Homo sapiens (Human)); submitted item: CC(C)Nc1cc(Nc2ccc3ncsc3c2)ncc1C(=O)NC1CCc2nnnn2CC1 (centres unmarked)
Response line: 7.7

Prompt line: Record CC(C)Nc1cc(Nc2ccc3ncsc3c2)ncc1C(=O)NC1CCc2nc(N)sc2C1 (centres unmarked) : what is its IC50 with IRAK4 (Homo sapiens (Human))?
Response line: 8.5

Prompt line: Query the reported IC50 for IRAK4 (Homo sapiens (Human)); item: "CC(C)(O)[C@H](F)CNC(=O)c1cnc(Nc2ccc3ncncc3c2)cc1N[C@@H]1CCC[C@H]1O"
Response line: 2.2

Continuing:
Prompt line: Could you share what IC50 was measured for CC(C)(O)[C@H](F)CNC(=O)c1cnc(Nc2ccc3ncsc3c2)cc1NC1CCOCC1F (some centres unmarked) [Example 230] , tested on IRAK4 (Homo sapiens (Human))?
Response line: 5.1

Prompt line: What IC50 appears in the records for this molecule with IRAK4 (Homo sapiens (Human))? "CC(C)Nc1cc(Nc2cc(F)c3ncsc3c2)ncc1C(=O)NC[C@@H](F)C(C)(C)O"
Response line: 5.9

Prompt line: Hi! What's the reported IC50 for CC(C)Nc1cc(Nc2ccc3ncsc3c2)ncc1C(=O)NCC[C@@H](C)NC(=O)CC1CCCOC1 (some centres unmarked) on IRAK4 (Homo sapiens (Human))?
Response line: 2.5

Prompt line: Provide the documented IC50 with IRAK4 (Homo sapiens (Human)) as the system for "CC(C)(O)[C@H](F)CNC(=O)c1cnc(Nc2ccc3ncsc3c2)cc1Nc1ccc(C(=O)NC2CC2)cc1"
Response line: 6.4

Prompt line: Lab note: need IC50 for "CC(C)(O)[C@H](F)CNC(=O)c1cnc(Nc2ccc3ncsc3c2)cc1NCCO" on IRAK4 (Homo sapiens (Human)), anyone have it?
Response line: 17.9

----------
# Tested on: TLR2 induced IL-6 in peripheral blood mononuclear cells (PBMCs)
# experiment: PBMC TLR2 Induced IL-6 Assay
# Format: cell-based, human
# condition summary: Homo sapiens, PBMC, 5 h, human PBMCs, 10 μg/ml lipoteichoic acid for 5 hours, IL-6 by ELISA; value without asterisk; read-out: Cell IC50
Items are presented alongside their recorded IC50.
Number only, in nM; omit the unit.

Sample records with IC50:
Prompt line: Form field: IC50 recorded for "CC(C)Nc1cc(Nc2ccc3ncsc3c2)ncc1C(=O)NCC[C@@H](C)NC(=O)[C@@H]1CC[C@H](F)C1" with TLR2 induced IL-6 in peripheral blood mononuclear cells (PBMCs) (enter value)
Response line: 307

Prompt line: Look up IC50 with TLR2 induced IL-6 in peripheral blood mononuclear cells (PBMCs) for this molecule: "CC(C)(O)[C@H](F)CNC(=O)c1cnc(Nc2ccc3ncsc3c2)cc1NC1CCC1"
Response line: 183

Prompt line: Test system TLR2 induced IL-6 in peripheral blood mononuclear cells (PBMCs); read-out IC50; what value for "CC(C)Nc1cc(Nc2cc(F)c3ncsc3c2)ncc1C(=O)NC[C@@H](F)C(C)(C)O" ?
Response line: 459

Prompt line: Give IC50 (TLR2 induced IL-6 in peripheral blood mononuclear cells (PBMCs)) of the following molecule: CC(C)Nc1cc(Nc2ccc3ncsc3c2)ncc1C(=O)NC1CCc2nc(N)sc2C1 (stereo not shown)
Response line: 2330

Prompt line: Query for TLR2 induced IL-6 in peripheral blood mononuclear cells (PBMCs): what IC50 does the record show for CC(C)(O)C(F)CNC(=O)c1cnc(Nc2ccc3ncsc3c2)cc1N[C@H]1CCCC(F)C1 (stereo partly shown) ?
Response line: 113

Prompt line: Provide value of IC50 for this record tested with TLR2 induced IL-6 in peripheral blood mononuclear cells (PBMCs): "CC(C)Nc1cc(Nc2ccc3ncsc3c2)ncc1C(=O)NCC[C@@H](C)NC(=O)CCCC(C)(C)O"
Response line: 250

Prompt line: API: value(readout= IC50, system= TLR2 induced IL-6 in peripheral blood mononuclear cells (PBMCs), query= CC(C)(O)[C@H](F)CNC(=O)c1cnc(Nc2ccc3nonc3c2)cc1N[C@@H]1CCCC1F (stereo partly shown) )
Response line: 281

Prompt line: Lookup: IC50 / TLR2 induced IL-6 in peripheral blood mononuclear cells (PBMCs) / "CC(C)(O)[C@H](F)CNC(=O)c1cnc(Nc2ccc3ncsc3c2)cc1N[C@H](CO)c1ccccc1"
Response line: 632

Prompt line: Given the entry "CC(C)(O)[C@H](F)CNC(=O)c1cnc(Nc2ccn3nccc3n2)cc1NC12CCC(O)(CC1)C2" , what IC50 was observed with TLR2 induced IL-6 in peripheral blood mononuclear cells (PBMCs)?
Response line: 279

Prompt line: What measured IC50 is associated with "CC(C)(O)[C@H](F)CNC(=O)c1cnc(Nc2ccc3ncc(C(N)=O)cc3n2)cc1NC1CCC1" on TLR2 induced IL-6 in peripheral blood mononuclear cells (PBMCs)?
Response line: 55

Continuing:
Prompt line: Short answer please: IC50, TLR2 induced IL-6 in peripheral blood mononuclear cells (PBMCs), entry CC(C)(O)[C@H](F)CNC(=O)c1cnc(Nc2nc3scnc3cc2F)cc1NC1CCOCC1F (stereo partly shown)
Response line: 476

Prompt line: Please tell me: IC50 of "CC(C)Nc1cc(Nc2ncc3ncsc3c2F)ncc1C(=O)NC[C@@H](F)C(C)(C)O" , system TLR2 induced IL-6 in peripheral blood mononuclear cells (PBMCs)?
Response line: 330

Prompt line: Form entry - test system: TLR2 induced IL-6 in peripheral blood mononuclear cells (PBMCs); read-out: IC50; molecule: CC(C)Nc1cc(Nc2ccc3ncsc3c2)ncc1C(=O)NC1CCC(C(C)(C)O)CC1 (stereo not shown)
Response line: 336

Prompt line: Write down the reported IC50 of CC(C)(O)[C@H](F)CNC(=O)c1cnc(Nc2ccn3nccc3n2)cc1NC1CC(F)C1 (stereo partly shown) , test system: TLR2 induced IL-6 in peripheral blood mononuclear cells (PBMCs).
Response line: 190

Prompt line: Enter reported IC50 observed with TLR2 induced IL-6 in peripheral blood mononuclear cells (PBMCs) for "CC(C)Nc1cc(Nc2ccc3ncsc3c2)ncc1C(=O)NCC[C@@H](C)NC(=O)OC(C)C"
Response line: 436

Prompt line: Quick check: IC50 on TLR2 induced IL-6 in peripheral blood mononuclear cells (PBMCs), item "CCNc1cc(Nc2ccc3ncnc(OC)c3c2)ncc1C(=O)NC[C@@H](F)C(C)(C)O" ?
Response line: 779

Prompt line: Reported IC50 for TLR2 induced IL-6 in peripheral blood mononuclear cells (PBMCs), given "CC(C)(O)[C@H](F)CNC(=O)c1cnc(Nc2ccc3ncsc3c2)cc1NC12CCC(NC(=O)c3ccccc3)(CC1)C2" ?
Response line: 311

Prompt line: Give IC50 (TLR2 induced IL-6 in peripheral blood mononuclear cells (PBMCs)) of the following molecule: CC(C)(O)[C@H](F)CNC(=O)c1cnc(Nc2nc3scnc3cc2F)cc1NC1CCCC1F (stereo partly shown)
Response line: 147

Prompt line: Can you look up IC50 on TLR2 induced IL-6 in peripheral blood mononuclear cells (PBMCs) for CC(C)(O)[C@H](F)CNC(=O)c1cnc(Nc2ccn3nccc3c2)cc1NC1CCC(F)(F)C1 (stereo partly shown) ?
Response line: 310
